- ASSAY OVERVIEW: yeast display, Sf9 membrane polyspecificity reagent, FACS + sequencing; frameworks hold sequencing errors
VALUE TYPE: polyreactivity (PSR sort gate)

Look over these answered cases.
polymer_sequence=QVQLVESGGGLVQAGGSLRLSCAASGSTIRDYAMGWYRQAPGKDRELVAVIDNSGGRTYYADSVKGRFTISRDNAKNTVYLQMNSLKPEDTAVYYCNTRRIAQYGYWGQGTQVTVSS experimental_value="high polyreactivity"
polymer_sequence=QVQLVESGGGLVQAGGSLRLSCAASGSTYRGYAMGWYRQAPGKEMELVAAISNRGTRTYYADSVKGRFTISRYNAKNTFYLQMNSLKPEDTAVYYFSAGNRVHRFDYWGQGTQVTVSS experimental_value="high polyreactivity"
polymer_sequence=QVQLVESGGGLVQAGGSLRLSCAASGRTFYYNGMGWYRQAPGKERELVAAITSGGTTSYADSVKGRFTISRDNAKNTVYLQMNSLKPEDTAVYYCAKRTVPRYEYWGQGTQVTVSS experimental_value="low polyreactivity"
polymer_sequence=QVQLVESGGGLVQAGGSLRLSCAASGRIFGRYAMGWYRQAPGKERELVAAITSGGRTSYADSVKGRFTISRDNAKNTVYLQMNSLKPEDTAVYYWNVVSRNSIRFDYWGQGTQVTVSS experimental_value="high polyreactivity"

Quick check: polyreactivity (PSR sort gate) of QVQLLESGCGLVQAGGSLSIRCAATGFIFIFIAMGWSRQATGTERELVAAIDTSDDSTYYADSVMGRFTISRDNAKNTVYLQMNRLKTEDTAVYYCAAEELSNYEYWGQGTQVTVSS ?
low polyreactivity

Quick check: polyreactivity (PSR sort gate) of QVQLVESGGGLVQAGGSLRLSCAASGSILDGYAMGWYIQAPGKARELVAAITTGGGSTYYADSVKGRFTISRDNAKNTVYLQMNSLKPEDTAVYYCAAYRKPGSWTWWVRGYGYWVQGTQVTVSS ?
low polyreactivity

FYI, the data here is from the nanobody polyreactivity screen of Harvey et al. (2022).
